test-system: σ2 receptor (Rattus norvegicus, UniProt Q5U3Y7)
Sequence (Q5U3Y7 whole entry): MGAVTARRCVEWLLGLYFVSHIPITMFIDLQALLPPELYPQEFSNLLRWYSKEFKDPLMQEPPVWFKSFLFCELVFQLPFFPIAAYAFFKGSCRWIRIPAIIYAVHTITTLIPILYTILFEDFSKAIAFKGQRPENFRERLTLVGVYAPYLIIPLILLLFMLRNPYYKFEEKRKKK
test-summary: σ2 receptor binding assay with [^3H]DTG in the presence of
applied-conditions: Ki-σ2, [^3H]DTG + 1 μM (+)-pentazocine, rat liver membranes, mean ± SEM
measurement-name: Ki

GET /values?readout=Ki&item= O=C(c1ccc(F)cc1)C1CCN(C2Cc3c(cccc3OCCF)CC2O)CC1 (single isomer, unassigned; (-)) [(-)-18a]
> 10 µM

GET /values?readout=Ki&item= O=C(c1ccc(F)cc1)C1CCN(C2Cc3c(cccc3OCCF)CC2O)CC1 (racemic) [Compound 18a]
> 10 µM
